Hello, the source for this data is patent US20250049896A1, in case you need it.

molecular target: T1, hmm.hTfRC (REGN2431), human transferrin receptor extracellular domain with hexahistidine-myc-myc tag (human, UniProt P02786 89-760); test: SPR (Biacore), mAb captured on anti-human Fc, 100 nM hTFR-mmh, 25 C
T1 construct: Monomeric recombinant protein, 79210 g/mol; also called hTFR-mmh; His-myc-myc-hTFRC ecto
T1 sequence (P02786 other isoform, or with tags, fused parts or gaps): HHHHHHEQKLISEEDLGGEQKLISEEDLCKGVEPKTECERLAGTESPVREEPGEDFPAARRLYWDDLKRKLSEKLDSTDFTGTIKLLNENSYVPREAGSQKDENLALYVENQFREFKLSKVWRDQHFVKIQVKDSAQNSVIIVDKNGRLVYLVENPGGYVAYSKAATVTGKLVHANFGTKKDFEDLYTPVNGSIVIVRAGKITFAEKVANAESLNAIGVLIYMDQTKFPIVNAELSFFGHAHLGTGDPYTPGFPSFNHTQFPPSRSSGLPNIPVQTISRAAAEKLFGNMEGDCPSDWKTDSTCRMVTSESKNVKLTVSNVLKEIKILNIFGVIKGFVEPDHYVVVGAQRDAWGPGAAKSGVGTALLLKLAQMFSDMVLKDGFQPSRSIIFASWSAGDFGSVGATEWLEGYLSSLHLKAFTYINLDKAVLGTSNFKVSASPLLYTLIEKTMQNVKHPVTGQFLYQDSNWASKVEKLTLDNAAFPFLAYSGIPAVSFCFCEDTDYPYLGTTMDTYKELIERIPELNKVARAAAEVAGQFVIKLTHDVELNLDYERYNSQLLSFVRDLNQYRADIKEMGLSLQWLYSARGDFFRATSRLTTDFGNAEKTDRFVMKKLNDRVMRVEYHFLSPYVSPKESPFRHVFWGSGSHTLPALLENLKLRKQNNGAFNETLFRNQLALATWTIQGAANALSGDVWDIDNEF
assay.readout: koff (s⁻¹)

[[record]]
binder = "12795B (antibody, human IgG1, kappa, V domains shown, Tested as bivalent human IgG1 from CHO primary supernatant) VH: EVQLVESGGGLVQPGGSLRLSCATSGFTFTSYDMKWVRQAPGLGLEWVSAISGSGGNTYYADSVKGRFTISRDNSRNTLYLQMNSLRAEDTAVYYCTRSHDFGAFDYFDYWGQGTLVTVSS VL: DIQMTQSPSSLSASVGDRVTITCRASQGIRDHFGWYQQKPGKAPKRLIYAASSLHSGVPSRFSGSGSGTEFTLTISSLQPEDFATYYCLQYDTYPLTFGGGTKVEIKR"
value_qualifier = "<"
measured_number = "1e-05"

[[record]]
binder = "12801B (antibody, human IgG1, kappa, V domains shown, Tested as bivalent human IgG1 from CHO primary supernatant) VH: EVQLLESGGALVQPGGSLRLSCAASGFTFTSYAMHWVRQAPGKGLEWVSSIRGSGGGTYSADSVKGRFTISRDNSRDTLYLQMNSVRAEDTAVYYCARSHDYGAFDFFDYWGQGTLVTVSS VL: DIQMTQSPSSLSASVGDRVTITCRASQGIRTDLGWYQQKPGKAPKRLIYAASSLQSGVPSRFSGSGSGTEFTLTISSLRPEDFATFYCLQYNSYPLTFGGGTKVEIKR"
value_qualifier = "="
measured_number = "4.19e-05"

[[record]]
binder = "69307 (antibody, human IgG1, kappa, V domains shown, Tested as bivalent human IgG1 from CHO primary supernatant) VH: EVQLVESGGGLVQPGGSLRLSCTASGFTFSNYWMTWVRQAPGKGLEWVANIKEDGSEKEYVDSVKGRFTISRDNAKNSLYLQMNSLRGEDTAVYYCARDGEQLVDYYYYYVMDVWGQGTTVTVSS VL: DIQMTQSPSSVSASVGDRVTITCRASQGISSWLAWYQQKPGKAPKLLIYAASSLQSGVPSRFSGSGSGTDFTLTISSLQPEDFATYYCQKADSLPYAFGQGTKLEIKR"
value_qualifier = "="
measured_number = "4.26e-05"

